Read-out: Interleukin-8 (IL8), CXCL8 (gene 3576)
Assay: BSK_MyoF_IL8: BioMAP Diversity Plus: MyoF Assay for Interleukin-8 (IL8) Biomarker Activity (AID 2284261)
Conditions: primary human lung fibroblasts
Experimental: BSK_MyoF is a cell-based, multiplexed-readout assay that uses lung fibroblasts, […], with measurements taken at 24 hours after chemical dosing in a microplate: 96-well plate.BSK_MyoF_IL8 is an assay component measured in the BSK_MyoF assay. […] The levels of cell surface (or secreted, indicated by the prefix "s") biomarker endpoints were measured by ELISA. […] Plates were read after 6 h.
Calls of active or inactive are those of the source. Rule for the calls: active = hit-call score of the fitted dose curve at least 0.9, where 1 is the maximum; inactive = score below 0.9.
API: response.call in true (1) for active, false (0) for inactive

Recorded call for Cc1cc(C)c(O)c(C(C)(C)C)c1 ? false (0)

Hi, sorry to bother you, what did the test record for NC(O)(C(F)(F)F)C(F)(F)F ? false (0)

GET /call?item= O=C(O)C(F)(F)OC(F)(F)C(F)(F)OC(F)(F)C(F)(F)OC(F)(F)F returns the recorded outcome of this test. false (0)

Could you check what this test reported for CCN(CC)c1ccc(N=Nc2ccccc2)cc1 ? true (1)

Hi, sorry to bother you, what did the test record for O=C(O)C(F)(F)C(F)(F)C(F)(F)OC(F)(C(F)(F)F)C(F)(F)F ? false (0)

In this assay, the call recorded for NC(=O)C(F)(F)C(F)(F)C(F)(F)F was what? false (0)

For this molecule, state the assay outcome: COC(F)(C(F)F)C(F)(F)F (centres undefined) false (0)

# outcome recorded in this test, key = CCN(CC)c1ccc(C=O)c(O)c1 false (0)

Could you please tell me the result logged for C[Si](Cl)(Cl)CCC(F)(F)C(F)(F)C(F)(F)C(F)(F)C(F)(F)C(F)(F)F in this assay? false (0)

Dear all, I need the recorded test outcome for Cc1ccc(O)c(-n2nc3ccccc3n2)c1 , thank you. false (0)

Dear all, I need the recorded test outcome for C[C@]12CC[C@H]3C(=CCc4cc(O)ccc43)[C@@H]1CCC2=O , thank you. false (0)

Status in this test for FC(F)(F)C(F)(F)C(F)(F)C(F)(F)C(F)(F)C(F)(F)C(F)(F)CCI ? false (0)

Which outcome was entered for the molecule CN(C(=O)C(F)(F)C(F)(F)C(F)(F)F)[Si](C)(C)C in this test? false (0)

Lab log entry: O=C(O)C(F)(F)C(F)(F)C(F)(F)C(F)(F)C(F)(F)C(F)(F)C(F)F — outcome as called in the assay? false (0)

So what was the verdict on O=C(O)C(F)(F)C(F)(F)C(F)(F)C(=O)O in this test? false (0)

Would you mind telling me which call this test gave CC(C)CCCC(C)CCO (centres undefined) ? false (0)

Hello, I am checking results. What call was entered for CCN(CC)c1ccc2c(c1)Oc1cc(N(CC)CC)ccc1C21OC(=O)c2ccccc21 ? false (0)

Would you mind telling me which call this test gave O=C1C=CC(=O)N1c1ccc(Cc2ccc(N3C(=O)C=CC3=O)cc2)cc1 ? false (0)

Record lookup: outcome of this test for O=S(=O)(O)CCC(F)(F)C(F)(F)C(F)(F)C(F)(F)C(F)(F)C(F)(F)C(F)(F)C(F)(F)F ? false (0)
